B1: Ubiquitin carboxyl-terminal hydrolase 3 (Saccharomyces cerevisiae), Q01477 (parent)
chain: MNMQDANKEESYSMYPKTSSPPPPTPTNMQIPIYQAPLQMYGYTQAPYLYPTQIPAYSFNMVNQNQPIYHQSGSPHHLPPQNNINGGSTTNNNNINKKKWHSNGITNNNGSSGNQGANSSGSGMSYNKSHTYHHNYSNNHIPMMASPNSGSNAGMKKQTNSSNGNGSSATSPSYSSYNSSSQYDLYKFDVTKLKNLKENSSNLIQLPLFINTTEAEFAAASVQRYELNMKALNLNSESLENSSVEKSSAHHHTKSHSIPKHNEEVKTETHGEEEDAHDKKPHASKDAHELKKKTEVKKEDAKQDRNEKVIQEPQATVLPVVDKKEPEESVEENTSKTSSPSPSPPAAKSWSAIASDAIKSRQASNKTVSGSMVTKTPISGTTAGVSSTNMAAATIGKSSSPLLSKQPQKKDKKYVPPSTKGIEPLGSIALRMCFDPDFISYVLRNKDVENKIPVHSIIPRGIINRANICFMSSVLQVLLYCKPFIDVINVLSTRNTNSRVGTSSCKLLDACLTMYKQFDKETYEKKFLENADDAEKTTESDAKKSSKSKSFQHCATADAVKPDEFYKTLSTIPKFKDLQWGHQEDAEEFLTHLLDQLHEELISAIDGLTDNEIQNMLQSINDEQLKVFFIRNLSRYGKAEFIKNASPRLKELIEKYGVINDDSTEENGWHEVSGSSKRGKKTKTAAKRTVEIVPSPISKLFGGQFRSVLDIPNNKESQSITLDPFQTIQLDISDAGVNDLETAFKKFSEYELLPFKSSSGNDVEAKKQTFIDKLPQVLLIQFKRFSFINNVNKDNAMTNYNAYNGRIEKIRKKIKYGHELIIPEESMSSITLKNNTSGIDDRRYKLTGVIYHHGVSSDGGHYTADVYHSEHNKWYRIDDVNITELEDDDVLKGGEEASDSRTAYILMYQKRN
partner: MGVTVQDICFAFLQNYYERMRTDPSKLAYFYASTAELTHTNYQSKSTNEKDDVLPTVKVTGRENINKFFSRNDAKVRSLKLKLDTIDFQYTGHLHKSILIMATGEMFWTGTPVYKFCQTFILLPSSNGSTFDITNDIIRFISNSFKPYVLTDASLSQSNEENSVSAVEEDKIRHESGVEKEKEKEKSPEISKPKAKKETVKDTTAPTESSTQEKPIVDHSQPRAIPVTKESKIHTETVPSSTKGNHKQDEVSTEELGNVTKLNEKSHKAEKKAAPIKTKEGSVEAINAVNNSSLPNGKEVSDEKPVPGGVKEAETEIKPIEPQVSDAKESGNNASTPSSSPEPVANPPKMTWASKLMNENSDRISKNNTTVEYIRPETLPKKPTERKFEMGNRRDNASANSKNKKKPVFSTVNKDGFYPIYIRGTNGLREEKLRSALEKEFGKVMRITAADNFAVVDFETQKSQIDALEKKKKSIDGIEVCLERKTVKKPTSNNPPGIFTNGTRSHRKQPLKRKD

Variants of: B1
runConditions: with bre5_yeast BRE5, P53741
parameterMeasured: effect of a mutation on the interaction

{"changes": "F209A", "experimentalValue": "with no effect"}
{"changes": "R224A", "experimentalValue": "with no effect"}

// provenance: IntAct's records for PubMed 17632125
